# MEASUREMENT_NOTES: Kinetic solubility of Form CSII (saturated solutions, HPLC)
# Type: physicochemical
# EXPERIMENTAL_CONDITIONS: PBS pH 7.4, aqueous buffer, thermodynamic from solid; pH=7.4 PBS, 25° C., 30 h
REPORTED_PROPERTY: solubility at 30 h

solubility at 30 h reported for this compound CC[C@@H]1CN(C(=O)NCC(F)(F)F)C[C@@H]1c1cnc2cnc3[nH]ccc3n12 [Form CSII] : 740 µg/mL

---

# MEASUREMENT_NOTES: Kinetic solubility of Form CSII (saturated solutions, HPLC)
# Assay type: physicochemical
# EXPERIMENTAL_CONDITIONS: FeSSIF pH 5.0, thermodynamic from solid; pH=5.0 FeSSIF, 37° C., 48 h
REPORTED_PROPERTY: solubility at 48 h

Short answer for CC[C@@H]1CN(C(=O)NCC(F)(F)F)C[C@@H]1c1cnc2cnc3[nH]ccc3n12 [Form CSII] : solubility at 48 h was 1500 µg/mL

Taken from patent US20210380596A1.
